Origin of measurements: patent US8507538B2

- study_system: S1P1/EDG1 (Homo sapiens, UniProt P21453)
- Sequence (P21453 whole entry): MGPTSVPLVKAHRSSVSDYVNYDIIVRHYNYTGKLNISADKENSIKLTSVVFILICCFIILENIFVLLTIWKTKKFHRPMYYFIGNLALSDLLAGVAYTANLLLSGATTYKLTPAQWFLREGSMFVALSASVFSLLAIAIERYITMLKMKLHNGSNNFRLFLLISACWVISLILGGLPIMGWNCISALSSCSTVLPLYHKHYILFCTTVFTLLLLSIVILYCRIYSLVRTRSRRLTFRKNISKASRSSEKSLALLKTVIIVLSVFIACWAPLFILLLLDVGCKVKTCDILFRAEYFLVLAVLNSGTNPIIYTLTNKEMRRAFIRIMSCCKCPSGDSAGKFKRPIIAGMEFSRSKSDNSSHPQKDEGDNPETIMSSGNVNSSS
- experimental_protocol: S1P1 CRE-bla CHOK1 reporter assay (inhibition of Forskolin induced cAMP)
- Format: cell-based
- experimental_setup: agonist activity range, Table 2; read-out: S1P1 ACTIVITY
endpoint_name: EC50

>>> reported("CC(C)Oc1ccc(-c2ncc(-c3cccc4c3CC[C@@H]4NC(=O)N3CCNCC3)s2)cc1C#N [Compound 188]")
"0.5 to 5 nM"
>>> reported("CC(=O)N[C@H]1CCc2c(-c3cnc(-c4ccc(OC(C)C)c(C#N)c4)s3)cccc21 [Compound 87]")
"0.05 to 0.5 nM"
>>> reported("CC(C)Oc1ccc(-c2ncc(-c3cccc4c3CC[C@@H]4NS(=O)(=O)CCC(=O)O)s2)cc1C#N [Compound 160]")
"< 0.05 nM"
>>> reported("CC(C)Oc1ccc(-c2ncc(-c3cccc4c3CC[C@@H]4NC(=O)N3CCCC3)s2)cc1C#N [Compound 173]")
"0.5 to 5 nM"
>>> reported("COCCS(=O)(=O)N[C@H]1CCc2c(-c3cnc(-c4ccc(OC(C)C)c(C#N)c4)s3)cccc21 [Compound 115]")
"0.05 to 0.5 nM"
>>> reported("CC(C)Oc1ccc(-c2ncc(-c3cccc4c3CC[C@@H]4NC(=O)N3CC[C@@H](N(C)C)C3)s2)cc1C#N [Compound 183]")
"0.5 to 5 nM"
>>> reported("CC(C)Oc1ccc(-c2ncc(-c3cccc4c3CC[C@@H]4NC(=O)N3CC[C@H](N(C)C)C3)s2)cc1C#N [Compound 182]")
"0.5 to 5 nM"
>>> reported("CC(C)Oc1ccc(-c2nnc(-c3cccc4c3CC[C@@H]4NC(=O)N3CC[C@H](O)C3)s2)cc1C#N [Compound 54]")
"0.05 to 0.5 nM"
>>> reported("CC(C)Oc1ccc(-c2ncc(-c3cccc4c3CCC4NC3CCOCC3)s2)cc1C#N (stereo not drawn) [Compound 217]")
"> 5 nM"
>>> reported("CC(C)Oc1ccc(-c2ncc(-c3cccc4c3CC[C@@H]4NC(=O)N3CC[C@@H](O)C3)s2)cc1C#N [Compound 174]")
"0.05 to 0.5 nM"
>>> reported("CC(C)Oc1ccc(-c2ncc(-c3cccc4c3CC[C@@H]4NS(=O)(=O)CCN3CCC3)s2)cc1C#N [Compound 127]")
"0.5 to 5 nM"
>>> reported("CC(C)Oc1ccc(-c2ncc(-c3cccc4c3CC[C@@H]4NC(=O)N3CCC[C@H](O)C3)s2)cc1C#N [Compound 196]")
"0.5 to 5 nM"
>>> reported("CC(C)Oc1ccc(-c2ncc(-c3cccc4c3CC[C@@H]4NC(=O)N3CCC(CO)CC3)s2)cc1C#N [Compound 194]")
"0.5 to 5 nM"
>>> reported("CC(C)Oc1ccc(-c2nnc(-c3cccc4c3CC[C@@H]4NC(=O)N(C)C)s2)cc1C#N [Compound 67]")
"0.5 to 5 nM"
>>> reported("CC(C)Oc1ccc(-c2ncc(-c3cccc4c3CC[C@@H]4NC(=O)[C@H](N)CO)s2)cc1C#N [Compound 79]")
"0.05 to 0.5 nM"

====

- study_system: S1P1/EDG1 (Homo sapiens)
- experimental_protocol: S1P1 CRE-bla CHOK1 reporter assay (inhibition of Forskolin induced cAMP)
- Format: cell-based
- experimental_setup: agonist activity range, Table 2; read-out: S1P1 ACTIVITY
pEC50: −log10 of the molar value.
endpoint_name: pEC50

>>> reported("CNCCS(=O)(=O)N[C@H]1CCc2c(-c3cnc(-c4ccc(OC(C)C)c(C#N)c4)s3)cccc21")
"8.30 to 9.30"
>>> reported("CC(C)Oc1ccc(-c2ncc(-c3cccc4c3CC[C@@H]4NS(=O)(=O)CCN3CCCC(O)C3)s2)cc1C#N (stereo in doubt)")
"8.30 to 9.30"
>>> reported("CC(C)Oc1ccc(-c2ncc(-c3cccc4c3CCC4NCCO)s2)cc1C#N (stereo in doubt)")
"8.30 to 9.30"
>>> reported("CC(C)Oc1ccc(-c2nnc(-c3cccc4c3CC[C@@H]4NC(=O)N3CC(O)C3)s2)cc1C#N [Compound 65]")
"9.30 to 10.30"
>>> reported("COCCN[C@H]1CCc2c(-c3cnc(-c4ccc(OC(C)C)c(C#N)c4)s3)cccc21")
"8.30 to 9.30"

====

Below is a list of entries, each paired with its recorded EC50 value.
- study_system: S1P1/EDG1 (Homo sapiens, UniProt P21453)
- experimental_protocol: S1P1 CRE-bla CHOK1 reporter assay (inhibition of Forskolin induced cAMP)
- Format: cell-based
- experimental_setup: agonist activity range, Table 2; read-out: S1P1 ACTIVITY
- Description: A mammalian expression plasmid containing S1P1/EDG1 cloned into pcDNA3.1 was purchased from Missouri S&T cDNA Resource Centre. […] Cells were seeded into 384-well black wall/clear bottom plates at 10^4 cells/well/19.5 μl assay media (DMEM-phenol free, 0.5% charcoal/dextran stripped serum, 2 mM glutamine, 0.1 mM NEAA, 1 mM Na-Pyruvate, 25 mM Hepes) and incubated for 18 hrs at 37° C. in 5% CO2. […] Plates were read at Ex:410/Em:458 and Ex:410/Em:522, and the response ratio determined. […]
Structures can show the parent of a compound that is named as a salt.
endpoint_name: EC50

>>> reported("CC(C)Oc1ccc(-c2ncc(-c3cccc4c3CC[C@@H]4NS(=O)(=O)CCN3CC[C@H](N(C)C)C3)s2)cc1C#N")
"> 5 nM"
>>> reported("CC(C)Oc1ccc(-c2csc(-c3cccc4c3CCC4O)c2)cc1C#N (centres unmarked)")
"> 5 nM"
>>> reported("CC(C)Oc1ccc(-c2ncc(-c3cccc4c3CC[C@@H]4NS(=O)(=O)CCN3CCC(CC(=O)O)CC3)s2)cc1C#N")
"0.5 to 5 nM"
>>> reported("COCC(=O)N[C@H]1CCc2c(-c3cnc(-c4ccc(OC(C)C)c(C#N)c4)s3)cccc21 [Compound 76]")
"0.5 to 5 nM"
>>> reported("CC(C)Oc1ccc(-c2nnc(-c3cccc4c3CCC4N)s2)cc1C#N (stereo in doubt) [Compound 5, hydrochloride]")
"0.5 to 5 nM"
>>> reported("CC(C)Oc1ccc(-c2ncc(-c3cccc4c3CCC4N3CCOCC3)s2)cc1C#N (centres unmarked)")
"0.5 to 5 nM"
>>> reported("CC(C)Oc1ccc(-c2nnc(-c3cccc4c3CC[C@@H]4NC(=O)N3CCC(O)CC3)s2)cc1C#N")
"0.5 to 5 nM"
>>> reported("CC(C)Oc1ccc(-c2nnc(-c3cccc4c3CC[C@@H]4NC(=O)N3CCC[C@H](O)C3)s2)cc1C#N [Compound 61]")
"0.05 to 0.5 nM"
>>> reported("CC(C)Oc1ccc(-c2nnc(-c3cccc4c3CC[C@@H]4NC(=O)N3CC(O)C3)s2)cc1C#N [Compound 64]")
"0.5 to 5 nM"
>>> reported("CC(C)Oc1ccc(-c2ncc(-c3cccc4c3CC[C@@H]4NS(=O)(=O)CCN3CCOCC3)s2)cc1C#N")
"0.5 to 5 nM"
>>> reported("CC(C)Oc1ccc(-c2ncc(-c3cccc4c3CC[C@@H]4NCC(=O)O)s2)cc1C#N")
"0.05 to 0.5 nM"
>>> reported("CC(C)Oc1ccc(-c2nnc(-c3cccc4c3CC[C@@H]4NCC(=O)N3CCCC3)s2)cc1C#N [Compound 39]")
"0.05 to 0.5 nM"
>>> reported("CC(C)Oc1ccc(-c2ncc(-c3cccc4c3CC[C@@H]4NC(=O)N3CC[C@H](N(C)C)C3)s2)cc1C#N [Compound 184]")
"> 5 nM"
>>> reported("CC(C)Oc1ccc(-c2ncc(-c3cccc4c3CC[C@@H]4NC(=O)Cc3ccccc3)s2)cc1C#N")
"> 5 nM"

====

- study_system: S1P1/EDG1 (Homo sapiens, UniProt P21453)
- experimental_protocol: S1P1 CRE-bla CHOK1 reporter assay (inhibition of Forskolin induced cAMP)
- Assay type: cell-based
- experimental_setup: agonist activity range, Table 2; read-out: S1P1 ACTIVITY
Counter-ions that a name gives are not always drawn.
Below is a list of entries, each paired with its recorded EC50 value.
endpoint_name: EC50

>>> reported("CC(C)Oc1ccc(-c2ncc(-c3cccc4c3CC[C@@H]4NCC(=O)N3CCC[C@H](O)C3)s2)cc1C#N")
"> 5 nM"
>>> reported("CC(C)Oc1ccc(-c2nnc(-c3cccc4c3CCC4NCC(=O)O)s2)cc1C#N (stereo in doubt)")
"0.05 to 0.5 nM"
>>> reported("CC(C)Oc1ccc(-c2nnc(-c3cccc4c3CC[C@@H]4NC(=O)N3CCC[C@H](O)C3)s2)cc1C#N [Compound 60]")
"0.5 to 5 nM"
>>> reported("CC(C)Oc1ccc(-c2ncc(-c3cccc4c3CCC4N3CCCC3)s2)cc1C#N (centres unmarked)")
"0.5 to 5 nM"
>>> reported("CC(C)Oc1ccc(-c2ncc(-c3cccc4c3CC[C@@H]4NCC(=O)N3CCNCC3)s2)cc1C#N [Compound 107]")
"0.5 to 5 nM"
>>> reported("CC(=O)N[C@@H]1CCc2c(-c3nnc(-c4ccc(OC(C)C)c(C#N)c4)s3)cccc21")
"0.05 to 0.5 nM"
>>> reported("CC(C)Oc1ccc(-c2nnc(-c3cccc4c3CCC4NCC(=O)N(C)C)s2)cc1C#N (stereo in doubt) [Compound 22, hydrochloride]")
"0.05 to 0.5 nM"
>>> reported("CC(C)Oc1ccc(-c2ncc(-c3cccc4c3CC[C@@H]4NS(=O)(=O)CCN3CC[C@H](N)C3)s2)cc1C#N")
"> 5 nM"
